experiment: NCI Yeast Anticancer Drug Screen. Data for the rad50EPP+ strain (AID 151);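 also: 0% = growth of vehicle-treated control cultures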; details: S. cerevisiae rad50 mutant strain, at 1.2 µM, hits give high values
Compounds without any hit were thinned out: in the full panel of roughly 79,000, 15% have a hit.
Measured parameter: growth inhibition (%)
Give bare numbers, in %.

Oc1c2c(c(O)c3ccccc13)C1(N=N2)c2ccccc2Oc2ccccc21 ... 8
O=C(c1cc(=O)c2ccc(O)cc2o1)c1ccc(Cl)cc1Cl ... -23
OC(CC(O)(C(F)(F)F)C(F)(F)F)c1ccc(C(O)CC(O)(C(F)(F)F)C(F)(F)F)cc1 (centres undefined) ... -2

q: Which growth inhibition value belongs to `CNC(=S)N/N=C(/C)CCC/C(C)=N/NC(=S)NC` ?
a: -9

* * *

test: NCI Yeast Anticancer Drug Screen. Data for the wt2 strain (AID 169);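 also: 0% = growth of vehicle-treated yeast cultures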; settings: S. cerevisiae wt2 strain growth inhibition; at 33.0 µM
About 79,000 compounds went through this panel and 15% of them were active in at least one assay; those are over-represented in the sample as a whole. Activity calls are given as the source filed them. Cut-off read from the data, not from the text of the source: active = growth inhibition above about 70%; inactive = the rest.
// allowed return values: active, inactive

// known answers, use as guide
O=[N+]([O-])c1ccc(/C=C\c2ccc3c(c2)OCO3)c([N+](=O)[O-])c1 ... inactive
O=C1C=C(Br)C(=O)c2ccccc21 ... active
CCOP(=O)(OCC)/C(C#N)=C/c1cccc(Oc2ccccc2)c1 ... active
O=C(Cc1ccccc1)NN1C(=O)C(Cl)C1c1cc(Br)cc(Br)c1O (configuration not stated) ... active
CN(C)CCNC(=Cc1ccc2ccccc2[n+]1C)NCCN(C)C ... inactive
CCCCCCCCCCCCOCCOCCOCC(N)=O ... active

q: Which outcome was assigned to `OC(c1ccccc1)(c1ccccc1)c1nccc2ccccc12` in this test?
a: inactive

q: // param item: Cc1ccc(NC(=O)CCC(=O)C(C)C(=O)c2ccccc2)c(C)c1 (configuration not stated) ; yields the recorded call
a: inactive

q: Write down the call the test reported for this compound. Item: `O=[N+]([O-])c1cc[n+]([O-])c(Cl)c1`
a: active

q: Look up the recorded call for `CCCNC(=O)OCc1c(COC(=O)NCCC)c(-c2ccc(Cl)c(Cl)c2)n2c1CCC2` in this test.
a: inactive

q: Lab log entry: `CN(C)/C(=N/C(=S)Nc1ccccc1)SCc1ccccc1` — outcome as called in the assay?
a: inactive

q: Which outcome was entered for the compound `CN(C)N=Nc1ccc(N(C)C)cc1` in this test?
a: inactive

* * *

assay: NCI Yeast Anticancer Drug Screen. Data for the rad18 strain (AID 177); conditions: S. cerevisiae rad18 mutant growth inhibition; at 11.0 µM; hits give high values
The panel holds about 79,000 compounds, 15% with a hit somewhere; the sample as a whole holds those more often.
Threshold check on growth inhibition: at or above 50% gives Criterion met, strictly below gives Criterion not met.

# count of solved cases: 5
COc1cc2c(cc1O)[C@H](C)C(c1ccccc1OC)O2 (stereo partly specified) ... Criterion not met
CC1=CC(=C(c2ccc(N)c(C)c2)c2ccc(N)c(C)c2)C=CC1=N ... Criterion not met
Clc1ccc(/C(=C\c2ccccc2)Cn2ccnc2)cc1 ... Criterion met
CN(C)CCNCCCNc1c2ccccc2nc2cccc([N+](=O)[O-])c12 ... Criterion met
CC1=NN(C(=O)CC(=O)NC(=O)/C=C\c2ccccc2)C(=O)C1N=Nc1ccc([N+](=O)[O-])cc1 (stereo unspecified) ... Criterion met

Next item in the queue.
q: Identify whether the reported growth inhibition of the following compound is 50% or greater: `COC(=O)/C(C#N)=C\NC(=S)C(N)=S`
a: Criterion met
